B1: library; numbered along this chain (parent)
chain: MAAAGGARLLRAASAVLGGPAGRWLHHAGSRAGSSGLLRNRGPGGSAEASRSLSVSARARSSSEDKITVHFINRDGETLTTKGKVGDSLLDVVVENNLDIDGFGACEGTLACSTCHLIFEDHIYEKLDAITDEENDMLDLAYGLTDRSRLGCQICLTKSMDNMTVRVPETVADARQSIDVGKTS

Variants of: B1
assayComment: scaled log2 fold change in cell abundance, elesclomol vs control (0 = silent mean, 1 = nonsense mean) (scaled log2 ratio); higher = higher viability under elesclomol (loss of FDX1 cuproptosis function);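 further: variant abundance is its share of total variant reads in each endpoint sample, from next-generation sequencing of the integrated ORF PCR-amplified out of genomic DNA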
setupConditions: with ABC1 FDX1 KO; elesclomol 5 nM; glucose 10 mM; 14 days
As shown below, each of these variants has a reported scaled log2 fold change value.
Enter a number only.

// worked examples, scaled log2 fold change included
{"mutationDescriptor": "V165P", "numericValue": 0.71}
{"mutationDescriptor": "R31W", "numericValue": -0.118}
{"mutationDescriptor": "P20Q", "numericValue": -0.5}
{"mutationDescriptor": "C106D", "numericValue": 1.03}
{"mutationDescriptor": "C106H", "numericValue": 1.11}

Recall and state the measured scaled log2 fold change for I178H .
-0.366

Kindly indicate its recorded scaled log2 fold change. Item: S159I
-0.459

Note down scaled log2 fold change recorded for R166A
0.373

// Input: G6L . Output its scaled log2 fold change only.
0.106

Quote scaled log2 fold change reported for I72S please.
-0.00568

Specify measured scaled log2 fold change for V69T .
0.119

Tell me measured scaled log2 fold change for M163V please.
-0.168

Report scaled log2 fold change for H70R
-0.349

Consider the variant A47I . State its measured scaled log2 fold change.
0.83

Supply reported scaled log2 fold change belonging to this variant: R39E
-0.217

// fetch scaled log2 fold change given entry L144Q
0.137

Tell me measured scaled log2 fold change for V93Y please.
-0.0809

Annotate the variant M137V with its measured scaled log2 fold change.
-0.0968
